// reported growth per item
Tested on: CCRF-CEM leukemia
Procedure summary: NCI-60 one-dose screen, 48 h (100 = growth as untreated, 0 = no growth, -100 = all killed)
Assay context: 10 µM unless noted
About 83,000 compounds went through this panel and 20% of them were active in at least one assay; those are over-represented in the sample as a whole.
Lab book: enter the figure in %, no units written.

C[C@@H](C(=O)NCCCC#Cc1cnc(Nc2ccc(C#N)cc2)nc1NC1CC1)N(C)C(=O)/C=C/CN(C)C; 13.8
CN(CCc1ccccc1)C(=S)N(C(=O)c1ccc([N+](=O)[O-])cc1)c1ccc(Cl)cc1; 39.6
CCOC(=O)C1=C(C)c2ccc(OC)c(OC)c2C1; 93
Cc1cccc2c(=O)c3c(sc12)c(NCCN)nc1ccccc13; -34.5
CCOc1cc2c(cc1OCC)C(c1cc(C)c(O)c(C)c1)NCC2 (stereo not given); 89.6

Now for the compound whose growth we want.
The compound identified as COc1cccc(/C=C/C(=O)c2c(C)nc3ccccc3c2/C=C/c2ccccc2)c1OC registered its growth at 13

* * *

Tested on: 786-0 renal
Procedure summary: NCI-60 one-dose screen, 48 h (100 = growth as untreated, 0 = no growth, -100 = all killed)
Assay context: 10 µM unless noted
Procedure: Cells are grown in 96 well plates and exposed to the test compound for 48 hours. Compounds are tested at a single concentration, which is 10^-5 M for most compounds. The reported endpoint is percent growth (GI% or GIPRCNT), where numbers from 0 - 100% represent growth inhibition, and numbers from -100% - 0 represent cell death. For example, a value of 40 represents 60% growth inhibition. A value of 0 means no net growth occurred over the course of the experiment. […]
About 83,000 compounds went through this panel and 20% of them were active in at least one assay; those are over-represented in the sample as a whole.
Please mark Yes if the recorded growth is equal to or greater than 50%, and No if it falls below.

Look over these answered cases.
COC(=O)[C@@H]1CCCN1C(=O)[C@H]1CCCN1C(=O)[C@@H](Cc1c[nH]c2ccccc12)NC(=S)Nc1cc(C(F)(F)F)cc(C(F)(F)F)c1; Yes
O=C(CSc1ncccc1C(=O)O)Nc1ccc(Oc2ccccc2)cc1; Yes
O=C1C(=O)c2c(ccc3ccccc23)-c2ccccc21; No
O=S(=O)(c1ccc(NC(=S)NC23CC4CC(CC(C4)C2)C3)cc1)N1CCCCC1; Yes
Cc1ccc(NC2=CC(=O)C(=O)c3ccccc32)c(C)c1; Yes

With those in mind, consider the next compound.
Q: Does O=c1c2cccc(F)c2sc2c(N3CCNCC3)nc3ccccc3c12 have a reported growth of at least 50%?
Result: No

* * *

Below: a set of entries, each annotated with reported growth.
Tested on: CAKI-1 renal
Procedure summary: NCI-60 one-dose screen, 48 h (100 = growth as untreated, 0 = no growth, -100 = all killed)
Assay context: 10 µM unless noted
About 83,000 compounds went through this panel and 20% of them were active in at least one assay; those are over-represented in the sample as a whole.
Entry rule: numbers only, all in %.

Recorded results for 4 molecules are shown here.
Nc1ccc(-c2nc3cc(Oc4ccc(Oc5ccc6[nH]c(-c7ccc(N)cc7)nc6c5)cc4)ccc3[nH]2)cc1; 120
O=C(Nc1nc2c(s1)CCc1c-2c(Br)n(Cc2ccccc2)c1Br)c1ccccc1; 67.4
COc1ccc(-c2cn[nH]c2-c2cc(OC)c(OC)c(OC)c2)cc1OCc1ccccc1; 28.9
CCN(CCO)CCNc1ccc(C)c2sc3cc(Cl)ccc3c(=O)c12; 68

Shifting focus to the molecule that follows.
Reported growth ( CCCCC1COc2cccc3c2N1C=C/C3=C\C(=O)N(C)c1ccccc1 (stereo not given) ) = 72

* * *

Test system: LOX IMVI melanoma
Procedure summary: NCI-60 one-dose screen, 48 h (100 = growth as untreated, 0 = no growth, -100 = all killed)
Assay context: 10 µM unless noted
The panel holds about 83,000 compounds, 20% with a hit somewhere; the sample as a whole holds those more often.
growth under 90% gets met, anything at or over 90% gets not met.

Q: Confirm or reject: growth of Cc1nc2ccccc2c(/C=C/c2ccc(F)cc2)c1C(N)=O lies strictly below 90%
Result: not met

* * *

Tested on: DU-145 prostate
Procedure summary: NCI-60 one-dose screen, 48 h (100 = growth as untreated, 0 = no growth, -100 = all killed)
Assay context: 10 µM unless noted
Compounds without any hit were thinned out: in the full panel of roughly 83,000, 20% have a hit.
Value type: growth (%)
Reply with just the number (in %).

Illustrative cases are given below, each with its answer.
COc1cc(C(=O)NN=C2c3ccccc3-c3ccccc32)cc(OC)c1OC; 49.7
O=C(Nc1ccc(Cl)cc1)N1CCN(c2ccc3nncn3n2)CC1; 36
COc1cc(C(=O)Nc2ccc(-c3nc4ccccc4[nH]3)cc2)cc(OC)c1OC; 87.9
CCN(CC)c1cc(C)c2cc(NC(=O)c3cccc(OC)c3)ccc2n1; 92.9

Now, please, on to the next molecule.
Entry COc1cc(/C=C2\CN(C)C/C(=C\c3cc(CN4CCCC4)c(O)c(OC)c3)C2=O)cc(CN2CCCC2)c1O ; growth = 60.8

* * *

Test system: MALME-3M melanoma
Procedure summary: NCI-60 one-dose screen, 48 h (100 = growth as untreated, 0 = no growth, -100 = all killed)
Assay context: 10 µM unless noted
The panel holds about 83,000 compounds, 20% with a hit somewhere; the sample as a whole holds those more often.
Here the recorded growth is given for each entry.
Respond with the bare value in %.

O=C(CSc1ccc2nnc(-c3cccc(F)c3)n2n1)Nc1ccc2c(c1)OCO2; 81

Noted for COc1cc(C2C3=C(COC3=O)N(CCO)c3cc4c(cc32)CCC4)cc(OC)c1O (stereo not given) : its growth reads 54.7

growth recorded for this compound, O=C(COc1cc(O)c2c(=O)cc(-c3ccccc3)oc2c1)Nc1ccccc1 , is 97.7

growth reported for this compound COc1cccc2c(=O)c3c(sc12)c(NCCCNCCO)nc1ccccc13 : 81.2

The compound identified as COc1cc(C(=O)NN=C2c3ccccc3-c3ccccc32)cc(OC)c1OC registered its growth at 44.4

* * *

Test system: OVCAR-8 ovarian
Procedure summary: NCI-60 one-dose screen, 48 h (100 = growth as untreated, 0 = no growth, -100 = all killed)
Assay context: 10 µM unless noted
The panel holds about 83,000 compounds, 20% with a hit somewhere; the sample as a whole holds those more often.
Value type: growth (%)
Express the result in % but write the number alone.

For orientation, consider the following solved cases.
C=C1C(=O)O[C@H]2[C@H]1CC/C(COC(=O)/C=C\C(=O)O)=C\CC[C@@]1(C)O[C@@H]21; 101
COc1cc(C2C3=C(COC3=O)N(CCO)c3cc4c(cc32)CCC4)cc(OC)c1O (centres undefined); 22.6
Cc1ccc(Nc2nc(N)c3ccccc3n2)cc1Cl; 57.8
COc1cc(NC(=O)CCSc2nc3ccccc3c(=O)n2Cc2ccccc2)cc(OC)c1OC; 79.3
O=C(CN1C=NC2C(N3CCOCC3)=NC=NC21)c1cccc2ccccc12 (centres undefined); 97

growth in this record for CN1C(=O)N(C)C2C1NN=c1s/c(=C\c3c[nH]c4ccccc34)c(=O)n12 (centres undefined) : 24.1

Noted for O=C(Nc1ccc(Cl)cc1)c1cc2ccccc2cc1OP(=O)(O)O : its growth reads 27.9

Per the record, O=C(Nc1ccc(N2CCNCC2)cc1)c1[nH]ncc1Nc1cc(Oc2ccccc2)ncn1 has growth of 26.9

Short answer for COc1c(B(O)O)cccc1-c1nc2ccc3n[nH]c(F)c3c2c2c1CCCC2 : growth was 72

Memo: O=C1OC(c2ccccc2)(c2ccccc2)c2ccsc21 , reported growth: 101

GET /value?item= Cc1ccc(C(=O)c2oc3ccc4c(C)cc(=O)oc4c3c2C)cc1 &field=growth returns 8.23

Noted for Cc1ccc2cccc(Oc3ccc(Nc4ncnc5onc(-c6ccccc6)c45)cc3)c2n1 : its growth reads 91

growth measured on COc1ccc(/C=C2/SC(=O)N(CC(=O)N3CCN(c4cc5c(cc4F)c(=O)c(C(=O)O)cn5C4CC4)CC3)C2=O)cc1 = 93.9

Note to self: growth recorded for CCN(CC)CCCNc1ccnc2cc3ccccc3cc12 was 60.1

Notebook: O=Cc1c(OCc2cnnn2CC(=O)Nc2ccc(Cl)cc2)ccc2ccccc12 , growth read as 99.2

Value of growth reported for the compound O=S1(=O)N(Cc2ccccc2)[C@@H](Cc2ccccc2)[C@H](O)[C@H](O)[C@H](Cc2ccccc2)N1Cc1ccccc1 is 7.06

Query COc1cc(C2C(C#N)=C(N)OC3=C2C(=O)c2ccccc2C3=O)cc(OC)c1OC (centres undefined) yields growth of 17.4

Per the records, this compound ( CC(C)CCNCC(O)Cn1c2ccccc2c2ccccc21 (centres undefined) ) has growth equal to 6.95

The recorded growth for COc1ccc(CCN2C(=O)CCSC2=S)cc1OC is 97.2

Cc1cc2c(c(C)c1Cl)C(=O)/C(=C/c1cccc([N+](=O)[O-])c1)O2 has a reported growth of 94.4

growth for O=NN(Cc1cccnc1)C(=O)NC1CCCCC1 is 104

Entry CCOC(=O)c1cc2c(n1Cc1ccccc1OC)-c1oncc1CCC2 ; growth = 35.4
